Cited source: patent US11680062B2

This listing pairs compounds with measured melting point.

- smi: "FC(F)(F)c1ccccc1CO/N=C(\\Cn1ccnc1)c1ccc2c(c1)OCO2"
  result: "156.3 to 157.5 °C"
- smi: "c1ccc(CO/N=C(\\Cn2ccnc2)c2ccc3c(c2)OCO3)cc1"
  result: "186.4 to 187.9 °C"
- smi: "CC(C)=CCO/N=C(\\Cn1ccnc1)c1ccc2c(c1)OCO2"
  result: "154.3 to 154.9 °C"

Attention now shifts to the item below.
// lookup melting point for `FC(F)(F)c1ccc(CO/N=C(\Cn2ccnc2)c2ccc3c(c2)OCO3)cc1`
121.8 to 122.7 °C

----------
Test system: BV-2 microglia
Conditions: mouse
readout kind: cell viability (%)
Could you give me the number in %? Just the number is fine.

Look over these answered cases.
- smi: "CC(C)=CCO/N=C(\\Cn1ccnc1)c1ccc2c(c1)OCO2"
  cell viability [%]: 93.3
- smi: "FC(F)(F)c1ccc(CO/N=C(\\Cn2ccnc2)c2ccc3c(c2)OCO3)cc1"
  cell viability [%]: 92.8
- smi: "C#CCO/N=C(\\Cn1ccnc1)c1ccc2c(c1)OCO2"
  cell viability [%]: 92.5
- smi: "c1ccc(CO/N=C(\\Cn2ccnc2)c2ccc3c(c2)OCO3)cc1"
  cell viability [%]: 97.8
- smi: "C(=C\\c1ccccc1)/CO/N=C(\\Cn1ccnc1)c1ccc2c(c1)OCO2"
  cell viability [%]: 96.3
- smi: "FC(F)(F)c1ccccc1CO/N=C(\\Cn1ccnc1)c1ccc2c(c1)OCO2"
  cell viability [%]: 95.4
- smi: "C=CCO/N=C(\\Cn1ccnc1)c1ccc2c(c1)OCO2"
  cell viability [%]: 97.8

From here, focus on the item given below.
Param item = `N#Cc1ccc(CO/N=C(\Cn2ccnc2)c2ccc3c(c2)OCO3)cc1` ; retrieve measured cell viability.
91.6

----------
Tested on: NO production in lipopolysaccharide-induced BV-2 microglia
Assay: Inhibition of NO production in lipopolysaccharide-induced BV-2 microglia
Format: cell-based
Settings: Mus musculus, read-out: EC50 (inhibitory effect on the NO production)
# condition met = EC50 below 3 µM (exclusive); condition not met = EC50 at/above 3 µM

- molecule: "c1ccc(CO/N=C(\\Cn2ccnc2)c2ccc3c(c2)OCO3)cc1 [I-6]"
  target: "NO production in lipopolysaccharide-induced BV-2 microglia"
  class assignment: "condition not met"
- molecule: "O=c1c(O)c(-c2ccc(O)c(O)c2)oc2cc(O)cc(O)c12 [quercetin, reference compound]"
  target: "NO production in lipopolysaccharide-induced BV-2 microglia"
  class assignment: "condition not met"
- molecule: "CC(C)=CCO/N=C(\\Cn1ccnc1)c1ccc2c(c1)OCO2 [I-5]"
  target: "NO production in lipopolysaccharide-induced BV-2 microglia"
  class assignment: "condition met"

Would you kindly verify if EC50 of C#CCO/N=C(\Cn1ccnc1)c1ccc2c(c1)OCO2 [I-1] is strictly less than 3 µM?
condition met

Check if EC50 falls below 3 µM for C(=C\c1ccccc1)/CO/N=C(\Cn1ccnc1)c1ccc2c(c1)OCO2 [I-10] .
condition not met

A record lists N#Cc1ccc(CO/N=C(\Cn2ccnc2)c2ccc3c(c2)OCO3)cc1 [I-9] . Is its EC50 below 3 µM?
condition not met

hey, is EC50 for FC(F)(F)c1ccc(CO/N=C(\Cn2ccnc2)c2ccc3c(c2)OCO3)cc1 [I-7] lower than 3 µM or not?
condition met

I'd appreciate it if you could check whether C=CCO/N=C(\Cn1ccnc1)c1ccc2c(c1)OCO2 [I-3] has EC50 smaller than 3 µM.
condition not met

I wonder whether FC(F)(F)c1ccccc1CO/N=C(\Cn1ccnc1)c1ccc2c(c1)OCO2 [I-8] has EC50 below 3 µM. Can you tell?
condition met
